Documented Δδmin (average minimal shift, relative to the WT complex) across a set of binders
- measurement-target: T1, PAH1(115–212) for NMR (UniProt Q60520 115-212)
- T1 construct: Sin3A PAH1 domain, residues 115–212; Same construct as m29; also called apo-PAH1; 15N-labelled PAH1(115–212); source: 15N labelled in M9 minimal media
- T1 sequence (looked up): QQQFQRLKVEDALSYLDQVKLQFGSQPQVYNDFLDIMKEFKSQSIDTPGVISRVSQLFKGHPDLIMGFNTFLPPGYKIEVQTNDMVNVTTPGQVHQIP
- assay-method-text: NMR titration; 15N-HSQC of 150 µM 15N-labelled PAH1(115–212) with 150 µM unlabelled Tet1(878–911) (1:1; also sub-stoichiometric ratio); 303 K; 20 mM Tris-HCl pH 7.4, 50 mM NaCl, 1 mM DTT; average minimal shift analysis
- test-settings: both partners purified

Study these solved cases before continuing.
{"binder": "LSLMKDRRLTLEQVVAIEALTQASEAPSESSSPS (domain or fragment, UniProt Q3URK3 861-894, looked up, Tag removal for NMR was conducted as needed) [Tet1-SID(878–911) L900A for NMR]", "assay-value": 0.074}
{"binder": "LSLMKDRRLTLEQVVAIEALAQLSEAPSESSSPS (domain or fragment, UniProt Q3URK3 861-894, looked up, Tag removal for NMR was conducted as needed) [Tet1-SID(878–911) T898A for NMR]", "assay-value": 0.026}
{"binder": "LSLMKDRRLTLEQVVAIEALEQLSEAPSESSSPS (domain or fragment, UniProt Q3URK3 861-894, looked up, Tag removal for NMR was conducted as needed) [Tet1-SID(878–911) T898E for NMR]", "assay-value": 0.038}

Now take the following binder into account.
Consider the binder LSLMKDRRLTLEQVVAAEALTQLSEAPSESSSPS (domain or fragment, UniProt Q3URK3 861-894, looked up, Tag removal for NMR was conducted as needed) [Tet1-SID(878–911) I894A for NMR] . State its measured Δδmin (average minimal shift, relative to the WT complex). 0.061
